Each recorded value in this set is attributed to patent US20230265432A1.

# Tested on: primary AML blasts
# assay_notes: FK228 dose response in patient AML cells (CellTiterGlo)
# Format: cell-based
# test_parameters: Homo sapiens, 48 h, AML-075B, low RNF5 and RBBP4, 48 h
assay_endpoint: pIC50
Keep in mind that pIC50 stands for -log10 of concentration in molar terms.

The molecule identified as C/C=C1\NC(=O)[C@H]2CSSCC/C=C/[C@H](CC(=O)N[C@H](C(C)C)C(=O)N2)OC(=O)[C@H](C(C)C)NC1=O [Romidepsin (FK228, Depsipeptide), Romidepsin] registered its pIC50 at 10.70
